Data credit: the supplement of paper PMC9732359

assay: protein stability index of a GFP-peptide fusion (yeast GPS) (PSI 1-4); higher = more stable; sorted into four equal gates, so the index is relative within each strain; conditions: san1∆
EXPERIMENTAL ENDPOINT: protein stability index
Lab note: jot down the number only; don't add units.

A selection of reference data follows.
               residue_codes    experimental_endpoint  endpoint_value
0   REDTPLSQNESTRASTV [ISW2]  protein stability index            2.96
1   RKKKFVLDVDPKYAKQK [ISW2]  protein stability index            2.25
2   LNDHIDDFEVNVASLVR [GRR1]  protein stability index            2.31
3   PIFDYIHIDALELAGMD [SIR3]  protein stability index            2.05
4   NTPLSLPTRGTLESLEN [COR1]  protein stability index             2.6
5  ICKNCSAILLSETDKRQ [RPO31]  protein stability index            2.81
6   DYNFKYGIPLEFYNEMH [PRP8]  protein stability index            1.78
7  KGEQIAIFPYQDPIFGS [ECM29]  protein stability index            2.37
8  LSGNSVEDVSQNAADLQ [RPL9A]  protein stability index            2.78
9   CELLKLTNEDPPGLMYL [SSN2]  protein stability index            3.26

Need protein stability index, item LRSKTSAGRIESNNPSH [SIR4] 2.55

// query: QPEVAVKAAINFSNVTD [YIL149C/MLP2] 2.2

Proceed to KRHSYAQSSHIRAIRKV [RPS1A] 2.42

// query: TATTGKRKPAKSSSNRS [RPN4] 2.68

Can you handle VISLGPNLATFISSGTS [YJL039C/NUP192] next? 2.36

Could you do the same for TGYDLSNSVFSPDGRNF [PRE10] , please? 2.52

Would you kindly repeat that for LDNKGSGEDAEEELWNS [YIL149C/MLP2] ? 3.16

Record: NTILNSSSDFRLHYYPK [BRR2] 2.81

Follow-up entry: MSTELTVQSERAFQKQP [RPS11A] 2.98

For NVLVTMPVAPTMEVKSF [YMR129W/POM152] then? 1.95

Now try IHLKQKLSESLDTRKEL [SMC3] . 3.4

Moving on to the next sequence: HNQSPRNTYQSAMGKQA [RPB2] 2.37

Please do the same for TYGFLTPNLWAEQPLPV [RPS2] as well. 1.37
